These data points were gathered from ChEMBL document CHEMBL4000234.

Test system: Vero
Experiment: Cytotoxicity against African green monkey Vero cells assessed as growth inhibition by CellTiter 96 non-radioactive cell proliferation colorimetric assay
Format: cell-based
Conditions: chlorocebus sabaeus, vero

# Compound, Measured on, Limit qualifier, CC50 [µM]
measured = [
    ("COC(=O)C1=C(CSc2ccccc2)NC(c2ccccn2)=NC1Cc1ccccc1 (stereo not given)", "Vero", ">", 100),
    ("Fc1ccc(C2N=C(c3ccccn3)NC(CN3CCOCC3)=C2I)c(Cl)c1 (stereo not given)", "Vero", "=", 45),
    ("COC(=O)C1=C(C)NC(c2ccccn2)=NC1Cc1ccccc1 (stereo not given)", "Vero", ">", 100),
    ("COC(=O)C1=C(CN=[N+]=[N-])NC(c2ccccn2)=NC1c1ccc(F)cc1Cl (stereo not given)", "Vero", "=", 56),
    ("CCOP(=O)(CC1=C(C(=O)OC)C(c2ccc(F)cc2Cl)N=C(c2ccccn2)N1)OCC (stereo not given)", "Vero", "=", 43),
]

====

System: HepG2
Test: Cytotoxicity against human HepG2 cells assessed as growth inhibition by CellTiter 96 non-radioactive cell proliferation colorimetric assay
Type: cell-based
Details: hepg2

# Molecule, Measured on, CC50
records = [
    ("CC1=C(I)C(c2ccc(F)cc2Cl)N=C(c2ccccn2)N1 (stereo not given)", "HepG2", "> 100 µM"),
    ("CC1=C(C(=O)NS(=O)(=O)N(C)C)C(c2ccc(F)cc2Cl)N=C(c2ccccn2)N1 (stereo not given)", "HepG2", "> 100 µM"),
    ("CC1(C)CC(=O)c2c(Cc3ccccc3)nc(-c3ccccn3)nc2C1", "HepG2", "47 µM"),
    ("COC(=O)c1c(CSc2ccccc2)nc(-c2ccccn2)nc1Cc1ccccc1", "HepG2", "> 100 µM"),
    ("COC(=O)C1=C(CN=[N+]=[N-])NC(c2ccccn2)=NC1c1ccc(F)cc1Cl (stereo not given)", "HepG2", "> 100 µM"),
    ("COC(=O)C1=C(CN2CCN(C)CC2)NC(c2ccccn2)=NC1Cc1ccccc1 (stereo not given)", "HepG2", "14 µM"),
    ("CC1(C)CC(=O)c2c(Cc3ccc(F)cc3Cl)nc(-c3cccnc3)nc2C1", "HepG2", "> 100 µM"),
    ("CC1(C)CC(=O)c2c(Cc3ccc(F)cc3Cl)nc(-c3ccccn3)nc2C1", "HepG2", "42 µM"),
    ("CCS(=O)(=O)CC1=C(C(=O)OC)C(c2ccc(F)cc2Cl)N=C(c2ccccn2)N1 (stereo not given)", "HepG2", "> 100 µM"),
    ("CC(=O)NC1=C(CN2CCOCC2)NC(c2ccccn2)=NC1c1ccc(F)cc1Cl (stereo not given)", "HepG2", "> 100 µM"),
    ("COCCOCc1nc(-c2ccccn2)nc(Cc2ccccc2)c1C(=O)OC", "HepG2", "≥ 100 µM"),
    ("COC(=O)C1=C(CS(=O)(=O)Cc2ccc(C)cc2)NC(c2ccccn2)=NC1c1ccc(F)cc1Cl (stereo not given)", "HepG2", "> 100 µM"),
    ("CC(=O)NC1=C(C)NC(c2ccccn2)=NC1c1ccc(F)cc1Cl (stereo not given)", "HepG2", "80 µM"),
    ("COC(=O)C1=C(CSc2ccccc2)NC(c2ccccn2)=NC1Cc1ccccc1 (stereo not given)", "HepG2", "96 µM"),
    ("COC(=O)c1c(Cc2ccccc2)nc(-c2ccccn2)nc1CN1CCN(C)CC1", "HepG2", "> 100 µM"),
]
